Source listed as ChEMBL document CHEMBL1201862.

experimental-system: SWI/SNF-related matrix-associated actin-dependent regulator of chromatin subfamily A member 2 (Homo sapiens)
Sequence (P51531 whole entry): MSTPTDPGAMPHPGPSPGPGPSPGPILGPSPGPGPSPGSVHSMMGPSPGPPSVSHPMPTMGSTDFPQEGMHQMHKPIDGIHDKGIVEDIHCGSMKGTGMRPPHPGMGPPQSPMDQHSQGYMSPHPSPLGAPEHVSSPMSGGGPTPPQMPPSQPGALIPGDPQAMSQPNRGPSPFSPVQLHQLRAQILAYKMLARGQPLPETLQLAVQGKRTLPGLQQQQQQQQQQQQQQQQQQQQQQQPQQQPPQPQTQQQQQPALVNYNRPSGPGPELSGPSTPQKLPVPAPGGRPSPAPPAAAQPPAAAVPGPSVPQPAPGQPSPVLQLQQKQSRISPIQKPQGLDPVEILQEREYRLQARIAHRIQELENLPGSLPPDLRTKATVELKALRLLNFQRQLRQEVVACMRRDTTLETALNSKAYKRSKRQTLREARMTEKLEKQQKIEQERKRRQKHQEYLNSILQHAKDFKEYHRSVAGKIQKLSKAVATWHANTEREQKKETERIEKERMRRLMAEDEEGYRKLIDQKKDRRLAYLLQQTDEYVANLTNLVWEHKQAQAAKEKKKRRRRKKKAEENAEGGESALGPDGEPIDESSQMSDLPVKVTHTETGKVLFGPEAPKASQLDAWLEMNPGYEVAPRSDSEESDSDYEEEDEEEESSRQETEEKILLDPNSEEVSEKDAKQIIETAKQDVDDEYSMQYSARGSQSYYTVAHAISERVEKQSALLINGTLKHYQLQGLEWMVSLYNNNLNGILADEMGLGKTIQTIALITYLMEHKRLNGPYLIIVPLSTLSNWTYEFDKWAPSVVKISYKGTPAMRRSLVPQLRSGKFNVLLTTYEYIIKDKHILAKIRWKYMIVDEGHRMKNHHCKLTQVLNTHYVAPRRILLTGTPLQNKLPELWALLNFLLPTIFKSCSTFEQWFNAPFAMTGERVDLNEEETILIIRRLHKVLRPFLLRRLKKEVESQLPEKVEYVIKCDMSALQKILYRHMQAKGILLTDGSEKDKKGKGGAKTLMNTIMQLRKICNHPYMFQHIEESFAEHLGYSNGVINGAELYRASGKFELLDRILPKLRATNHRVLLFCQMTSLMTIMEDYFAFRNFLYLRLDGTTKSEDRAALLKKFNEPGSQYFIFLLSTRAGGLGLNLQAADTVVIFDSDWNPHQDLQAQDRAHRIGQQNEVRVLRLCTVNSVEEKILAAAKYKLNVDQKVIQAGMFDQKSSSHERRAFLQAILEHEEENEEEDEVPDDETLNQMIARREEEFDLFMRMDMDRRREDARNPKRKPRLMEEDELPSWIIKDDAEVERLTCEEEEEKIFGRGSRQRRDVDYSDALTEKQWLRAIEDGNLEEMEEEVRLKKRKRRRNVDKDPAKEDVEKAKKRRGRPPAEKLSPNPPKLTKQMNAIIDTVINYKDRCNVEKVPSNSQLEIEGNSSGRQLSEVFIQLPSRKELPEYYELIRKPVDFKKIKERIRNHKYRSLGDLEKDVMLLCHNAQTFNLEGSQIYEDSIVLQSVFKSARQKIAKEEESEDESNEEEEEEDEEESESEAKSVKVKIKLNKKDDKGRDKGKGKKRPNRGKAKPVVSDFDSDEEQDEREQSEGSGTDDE
protocol-summary: Luminescence-based cell-based high throughput dose response assay to identify activators of the function of SWI/SNF related, matrix associated, actin dependent regulator of chromatin, subfamily a, member 2 (SMARCA2, BRM).
Format: functional
Calls of active or inactive are those of the source.
Outcomes: active, inactive

compound | group-label
COCn1c(COc2ccccc2)nc2ccccc21 | inactive
COc1ccc2nc3cc(Cl)ccc3c(Nc3cc(CN4CCCC4)c(O)c(CN4CCCC4)c3)c2n1 | active
c1ccc2c(c1)C1=NCCN1c1ccccc1-2 | active
CCN(CC)CCC(=O)Nc1cccc2c1C(=O)c1ccccc1C2=O | active
C=C1C(=O)OC2C1CCC(C)C1C=CC(=O)C12C (stereo not given) | inactive

* * *

This section presents compounds with their documented GI50 values.
Tested on: SN12K1
protocol-summary: cells
Format: functional
run-conditions: Homo sapiens
The source made the active and inactive calls.

compound | experimental-system | GI50
CN1OC(=O)N(C)C1c1ccccc1 (centres undefined) | SN12K1 | > 100 µM (inactive)
CC(C)=CC(=O)OC1C2C(C)C(=O)OC2C(O)C(C)C2C=CC(=O)C21C (centres undefined) | SN12K1 | 2.39 µM (inactive)
COc1ccc(S(=O)(=O)N/N=C/C(=O)O)cc1 | SN12K1 | 360 µM (inactive)
CN1CCN(c2ccc3[nH]c(-c4ccc5[nH]c(-c6ccc(O)cc6)nc5c4)nc3c2)CC1 | SN12K1 | 27 µM (inactive)

* * *

// Glyceraldehyde-3-phosphate dehydrogenase (Homo sapiens, UniProt P04406) IC50 records
measurement-type: IC50

mol | measurement
Cc1ccc(-c2nnc(SCC(=O)Nc3ccccc3F)o2)cc1 | > 100 µM (not active)
O=C1C(Cl)=C(N2CCN(c3ncccn3)CC2)C(=O)N1c1ccc(C(F)(F)F)cc1 | > 50 µM (inconclusive)
COc1ccc(F)cc1S(=O)(=O)Nc1cccnc1 | > 100 µM (not active)
NS(=O)(=O)c1ccc(/N=C/C2=C(O)c3ccccc3C2=O)cc1 | > 100 µM (not active)
Cc1cccc(N2C(=O)C(Cl)=C(N3CCN(c4ccccc4)CC3)C2=O)c1 | > 50 µM (inconclusive)
O=C(NCCO)c1cc(-c2cc(F)c(F)cc2F)n[nH]1 | > 10 µM (inconclusive)
c1ccc(-c2nnc(-c3ccccn3)[nH]2)nc1 | > 100 µM (not active)
O=C1C(Cl)=C(N2CCN(c3ccccc3)CC2)C(=O)N1c1cccc(C(F)(F)F)c1 | > 50 µM (inconclusive)

* * *

experimental-system: Heat shock factor protein 1 (Mus musculus, UniProt P38532)
Sequence (P38532 whole entry): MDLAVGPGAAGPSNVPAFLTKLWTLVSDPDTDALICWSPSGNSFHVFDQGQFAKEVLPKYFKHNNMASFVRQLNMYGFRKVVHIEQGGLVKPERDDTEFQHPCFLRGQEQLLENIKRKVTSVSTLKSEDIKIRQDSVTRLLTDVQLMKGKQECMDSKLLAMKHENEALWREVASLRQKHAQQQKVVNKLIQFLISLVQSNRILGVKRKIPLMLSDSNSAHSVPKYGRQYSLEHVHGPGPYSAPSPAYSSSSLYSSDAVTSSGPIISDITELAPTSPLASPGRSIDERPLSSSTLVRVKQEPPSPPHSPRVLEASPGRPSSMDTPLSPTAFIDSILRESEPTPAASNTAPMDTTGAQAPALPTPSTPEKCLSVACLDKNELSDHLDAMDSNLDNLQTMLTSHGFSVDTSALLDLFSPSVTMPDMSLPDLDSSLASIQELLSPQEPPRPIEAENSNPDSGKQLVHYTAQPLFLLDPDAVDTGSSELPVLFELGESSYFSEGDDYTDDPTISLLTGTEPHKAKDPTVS
protocol-summary: inhibition of MG132-induced HSE-luciferase signal, confirmation, cell-based, NIH3T3, luminescence, dose retest (AID 2382);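 further: NIH3T3 fibroblasts with HSF1-driven luciferase reporter stressed by proteasome inhibitor MG132; luminescence from HSF1-driven luciferase expression after 8 hours of MG132 stress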
Format: functional
The source made the active and inactive calls.
This section presents molecules with their documented EC50 values.

molecule | experimental-system | EC50
CC(C)CC(NC(=O)c1ccco1)C(=O)Nc1ccc2c(c1)OCCO2 (stereo unspecified) | Heat shock factor protein 1 (Mus musculus, UniProt P38532) | 11.3 µM (active)
CN1CCc2c(sc(/N=C/c3cc(C(C)(C)C)ccc3O)c2C#N)C1 | Heat shock factor protein 1 (Mus musculus, UniProt P38532) | > 195 µM (not active)
O=S(=O)(Nc1ccc2c(c1)OCCO2)c1cccc2nsnc12 | Heat shock factor protein 1 (Mus musculus, UniProt P38532) | 4.32 µM (active)
Cc1ccc(NC(=O)NC(=O)CN2CCN(c3ccc(O)cc3)CC2)c(C)c1 | Heat shock factor protein 1 (Mus musculus, UniProt P38532) | > 195 µM (not active)
COc1cccc(CNc2ccc(S(N)(=O)=O)cc2)c1OC | Heat shock factor protein 1 (Mus musculus, UniProt P38532) | > 195 µM (not active)
CCN=C(S)N(C)CCc1cc2c(c(OC)c1C=C1C(=O)N(C)C(=O)N(C)C1=O)OCO2 | Heat shock factor protein 1 (Mus musculus, UniProt P38532) | > 195 µM (not active)
O=C(COc1ccc(F)cc1)Nc1cc(Cl)ccc1-n1cncn1 | Heat shock factor protein 1 (Mus musculus, UniProt P38532) | > 195 µM (not active)
COc1ccc(Oc2cc(NC(=O)c3nn(C)cc3[N+](=O)[O-])cc([N+](=O)[O-])c2)cc1 | Heat shock factor protein 1 (Mus musculus, UniProt P38532) | 8.9 µM (inconclusive)
O=C(Cc1ccccc1)Nc1nc2ccccc2s1 | Heat shock factor protein 1 (Mus musculus, UniProt P38532) | > 195 µM (not active)
NC(=NOC(=O)Cc1ccccc1[N+](=O)[O-])c1cccnc1 | Heat shock factor protein 1 (Mus musculus, UniProt P38532) | > 195 µM (not active)
COc1ccc(C(=O)NC(=S)NNC(=O)c2ccco2)cc1 | Heat shock factor protein 1 (Mus musculus, UniProt P38532) | > 195 µM (not active)
